These measurements were taken from PubChem BioAssay (NCI).

System: A549 NSCLC
assay.explanation: NCI tumour cell line growth inhibition, 48 h
Measured GI50, listed per entry for reference.

* CC(C)CCC(=O)[C@@H](C)[C@H]1[C@@H](OC2OCC(O)C(O)C2NS(C)(=O)=O)C[C@H]2[C@@H]3CC=C4C[C@@H](O)CC[C@]4(C)[C@H]3CC[C@]12C (stereo partly drawn) | 3.55 µM
* CO[C@@H]1[C@H]2[C@@H](C)c3ccoc3C[C@@H]2[C@@]2(C)CC[C@H](OC(=O)c3ccccc3)[C@](C)(C(=O)O)[C@]2(O)[C@@H]1OC(=O)c1ccccc1 | 10.6 µM

Proceeding to the next molecule to report its GI50.
Which GI50 is reported with A549 NSCLC for this entry: COc1cc2ncn(-c3cc(OCc4ccccc4C(F)(F)F)c(C(C)=O)s3)c2cc1OC ?
> 25 µM
